Biological target: BRaf (Homo sapiens, UniProt P15056)
Construct: purchased ProQinase GmbH, Freiburg, Germany (33PanQinase Assay Service)
Sequence (P15056 whole entry, species assumed): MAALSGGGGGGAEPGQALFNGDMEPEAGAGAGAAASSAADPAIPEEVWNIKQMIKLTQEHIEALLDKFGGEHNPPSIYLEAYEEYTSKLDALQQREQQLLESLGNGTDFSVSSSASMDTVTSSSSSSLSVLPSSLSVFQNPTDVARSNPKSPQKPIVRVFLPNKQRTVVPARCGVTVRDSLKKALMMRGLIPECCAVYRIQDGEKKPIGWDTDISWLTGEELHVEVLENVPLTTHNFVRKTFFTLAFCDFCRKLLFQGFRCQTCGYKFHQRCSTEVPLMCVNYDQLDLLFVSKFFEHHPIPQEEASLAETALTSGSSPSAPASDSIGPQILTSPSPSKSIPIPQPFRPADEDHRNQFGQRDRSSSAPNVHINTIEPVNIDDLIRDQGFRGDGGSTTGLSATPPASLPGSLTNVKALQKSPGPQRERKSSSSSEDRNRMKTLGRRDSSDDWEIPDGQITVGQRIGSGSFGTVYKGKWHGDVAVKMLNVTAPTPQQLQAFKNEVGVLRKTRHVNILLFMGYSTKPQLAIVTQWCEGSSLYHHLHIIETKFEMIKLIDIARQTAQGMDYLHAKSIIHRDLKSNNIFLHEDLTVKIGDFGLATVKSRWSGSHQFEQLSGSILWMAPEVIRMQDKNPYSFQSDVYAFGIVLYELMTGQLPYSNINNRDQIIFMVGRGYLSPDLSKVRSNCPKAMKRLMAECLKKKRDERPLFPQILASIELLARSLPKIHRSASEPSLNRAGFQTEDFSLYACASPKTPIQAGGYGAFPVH
Assay: KINOMEscan competition binding assay, BRaf
Details: ratio PoC (off-target)/PoC (MKK4)
VALUE_TYPE: selectivity based on % Ctrl @100 nM vs. Braf

(Q) selectivity based on % Ctrl @100 nM vs. Braf for CCCS(=O)(=O)Nc1ccc(F)c(C(=O)c2c[nH]c3ncc(-c4ccc5ccsc5c4)cc23)c1F ?
(A) ◯ (3 ≥ Ratio)

(Q) And CCCS(=O)(=O)Nc1ccc(F)c(C(=O)c2c[nH]c3ncc(-c4ccnnc4)cc23)c1F ?
(A) ◯ (3 ≥ Ratio)
